Overview of recorded TGI for various compounds
System: MOLT-4 leukemia
Experiment: NCI tumour cell line growth inhibition, 48 h

These recorded examples may help you get a feel for the data.
TGI in this record for CN(CCc1ccc(Cl)c(Cl)c1)[C@H]1CCCC[C@H]1N1CCCC1 : > 100 µM

TGI in this record for CC(C)(CO)CNc1nc(N)nc(Cl)c1N : > 100 µM

Now consider the entry below.
TGI in this record for NC(Cc1cc(I)c(O)c(I)c1)C(=O)O (stereo not drawn) : > 500 µM

###

Tested on: BT-549 breast
Experiment: NCI tumour cell line growth inhibition, 48 h
Overview of recorded TGI for various compounds

TGI in this record for COC(=O)C1=C(O)C(C(=O)OC)[C@@]2(O)[C@@H](C(=O)OC)C(c3ccc(OC(=O)/C(=C/c4ccc(Cl)cc4)c4ccc(Cl)cc4)cc3)C[C@@H]1[C@@H]2C(=O)OC (stereo not given in full) : > 100 µM

TGI in this record for O=C(N/N=C\c1cccc2ccccc12)Nc1ccc([N+](=O)[O-])cc1 : > 66.4 µM

TGI in this record for c1ccc(CCN2CCCCCC2)nc1 : > 100 µM

TGI in this record for COC(=O)C(/C(=N/NC(=O)c1ccncc1)C(=O)Nc1ccccc1OC)c1nc2ccc(Cl)cc2[nH]c1=O (stereo not given) : > 100 µM

Now consider the entry below.
TGI in this record for S=c1nc(-c2nc(=S)[nH]c3c2CCCCCCCCCC3)c2c([nH]1)CCCCCCCCCC2 : > 100 µM

###

System: T-47D breast
Experiment: NCI tumour cell line growth inhibition, 48 h
TEST READOUT: TGI

These recorded examples may help you get a feel for the data.
TGI in this record for CC1(C)COC(c2cccc(C3=NC(C)(C)CO3)c2Br)=N1 : > 100 µM

TGI in this record for COc1ccc(-c2oc(=O)ccc2C#Cc2cc(OC)c(OC)c(OC)c2)cc1O : > 100 µM

TGI in this record for O=C(N/N=C\c1cccc2ccccc12)Nc1ccc([N+](=O)[O-])cc1 : > 41.4 µM

TGI in this record for O=C1NC(=S)N/C1=C/c1ccccc1O : > 100 µM

TGI in this record for C=CCC(CNC(=O)OCc1ccccc1)O[Si](C)(C)C(C)(C)C (stereo not drawn) : > 100 µM

Further cases:
TGI in this record for COC(=O)c1c[nH]c(=O)[nH]c1=O : > 100 µM

###

System: OVCAR-5 ovarian
Test: NCI tumour cell line growth inhibition, 48 h
TEST READOUT: TGI

TGI in this record for O=P(Oc1ccc(Cl)cc1)(Oc1ccc(Cl)cc1)N1CC1 : > 10 µM

TGI in this record for Cc1ccc(C(=O)N(C(C)C)C(C)C)cc1N=NN(C)C : > 100 µM

TGI in this record for COc1ccc(-c2oc(=O)ccc2C#Cc2cc(OC)c(OC)c(OC)c2)cc1O : > 100 µM

TGI in this record for CC(NC(=O)/C(=C/c1ccccc1O)NC(=O)c1ccccc1)C(=O)O (stereo not given) : > 100 µM

TGI in this record for O=C1C2c3[nH]c4ccccc4c3[C@@H]3CCCCCCCCCCC3C2C(=O)N1c1ccccc1 (stereo not given in full) : > 100 µM

TGI in this record for CS(=O)(=O)OCCN1CCC2(CC1)SSC1(CCN(CCOS(C)(=O)=O)CC1)S2 : 93.2 µM

TGI in this record for CN(C(=O)C1(C(=O)C=[N+]=[N-])CC1)c1ccccc1 : > 100 µM

TGI in this record for CC(C)(CO)CNc1nc(N)nc(Cl)c1N : > 100 µM

TGI in this record for Cc1cccc(C(C)(C)C)c1NC(=O)/C(Cc1nc2ccc([N+](=O)[O-])cc2[nH]c1=O)=N/NC(=O)C[N+](C)(C)C : > 100 µM

TGI in this record for CC1(C)CCC[C@]23C(=O)O[C@](O)(C(=O)C4=C[C@@](C)(/C=C/CCCc5ccc6ccc7cccc8ccc5c6c78)CC[C@@]42O)[C@@H]13 : 0.376 µM

TGI in this record for C=C1CCC2C3(C)COC(c4ccc(NC(C)=O)cc4)OC3CCC2(C)C1C/C=C1/C(=O)OCC1O (stereo not given) : > 100 µM

TGI in this record for Cc1ccc(Cl)cc1Nc1nc(C(F)(F)F)ccc1C(=O)Nc1cccc(C(F)(F)F)c1 : 11.4 µM

TGI in this record for COc1ccc(-c2nn(-c3cccc(Cl)c3)cc2C=C(C#N)C#N)cc1 : 48.4 µM

TGI in this record for CCOc1ccc2[nH]c3c(C)c4cc[n+](C)cc4c(C)c3c2c1 : > 100 µM

TGI in this record for O=C1NC(=S)N/C1=C/c1ccccc1O : > 100 µM

###

Test system: HCC-2998 colon
Test: NCI tumour cell line growth inhibition, 48 h
Overview of recorded TGI for various compounds

These recorded examples may help you get a feel for the data.
TGI in this record for Cc1c[nH]c2c1C13CC1CN(C(=O)c1cc4cc(NC(=O)c5cc6ccccc6o5)ccc4[nH]1)C3=CC2=O (centres undefined) : < 0.001 µM

TGI in this record for CC(CN=C(CC(=O)c1ccc(Br)cc1)c1ccccc1)N=C(CC(=O)c1ccc(Br)cc1)c1ccccc1 (centres undefined) : > 100 µM

TGI in this record for C#CCN1C(=O)/C(=c2\sc3n(c2=O)C2C(NN=3)N(CC)C(=O)N2CC)c2ccccc21 (centres undefined) : > 100 µM

Now consider the entry below.
TGI in this record for O=C(CC(O)(C(F)(F)F)C(F)(F)F)C(CCCl)C(O)(C(F)(F)F)C(F)(F)F (centres undefined) : > 100 µM

###

System: SK-MEL-28 melanoma
Assay: NCI tumour cell line growth inhibition, 48 h
Overview of recorded TGI for various molecules

These recorded examples may help you get a feel for the data.
TGI in this record for C=CN1C(=O)OC(c2ccccc2)C1c1ccccc1 (stereo not given) : > 100 µM

TGI in this record for O=C(CC(O)(C(F)(F)F)C(F)(F)F)C(CCCl)C(O)(C(F)(F)F)C(F)(F)F (stereo not given) : > 100 µM

TGI in this record for CC(C)C[C@H](NC(=O)[C@H](CCc1ccccc1)NC(=O)CN1CCOCC1)C(=O)N[C@@H](Cc1ccccc1)C(=O)N[C@@H](CC(C)C)C(=O)[C@@]1(C)CO1 : 1.57 µM

TGI in this record for CC(=O)N(CN1C(=O)CCC1C(=O)O)c1ccccc1 (stereo not given) : > 100 µM

TGI in this record for COc1ccc(C2OC(=O)c3c2ccc2ccccc32)c(C)c1 (stereo not given) : > 100 µM

Further cases:
TGI in this record for Oc1ccc2oc3ncc(Cl)c(-c4ccccc4)c3c2c1 : > 100 µM

TGI in this record for C(=N\Nc1nnc2c(n1)[nH]c1ccccc12)/c1cccnc1 : > 100 µM

TGI in this record for O=C(c1ccccc1Nc1ccnc(C(F)(F)F)c1)N1CCN(c2cccc(Cl)c2)CC1 : > 100 µM

TGI in this record for CCOC(=O)c1nc2c3c(ncn2n1)Oc1c(c(-c2ccccc2)nn1-c1ccccc1)C3c1ccc(Cl)cc1 (stereo not given) : > 100 µM

TGI in this record for Cn1c2ccccc2c(=Nc2ccccc2)c2c3ccccc3[nH]c21 : 6.17 µM

###

Overview of recorded TGI for various molecules
Tested on: HT29 colon
Assay: NCI tumour cell line growth inhibition, 48 h

These recorded examples may help you get a feel for the data.
Entry CN1CCn2c(Br)ccc2C1=O ; assay system HT29 colon; TGI recorded at > 100 µM

Entry CN(C(=O)C1(C(=O)C=[N+]=[N-])CC1)c1ccccc1 ; assay system HT29 colon; TGI recorded at > 100 µM

Further cases:
Entry CCCCc1c2c(nc3c1CCc1cc4c(nc1-3)-c1nc3c(c(CCCC)c1CC4)CCC/C3=C\c1ccccc1)/C(=C/c1ccccc1)CCC2 ; assay system HT29 colon; TGI recorded at > 100 µM

###

System: MALME-3M melanoma
Test: NCI tumour cell line growth inhibition, 48 h
TEST READOUT: TGI

These recorded examples may help you get a feel for the data.
Entry O=C1c2ccccc2C(=O)c2c1ccc(C(Br)Br)c2[N+](=O)[O-] ; assay system MALME-3M melanoma; TGI recorded at 3.71 µM

Entry O=C1NC(=S)N/C1=C/c1ccccc1O ; assay system MALME-3M melanoma; TGI recorded at > 100 µM

Now consider the entry below.
Entry O=S1(=O)NNC(=NCc2ccc(Cl)cc2)c2ccccc21 ; assay system MALME-3M melanoma; TGI recorded at > 100 µM

###

Overview of recorded TGI for various compounds
System: UACC-62 melanoma
Assay: NCI tumour cell line growth inhibition, 48 h

These recorded examples may help you get a feel for the data.
TGI in this record for Cc1cc2ccccc2c[n+]1CC(O)C[n+]1cc2ccccc2cc1C : > 100 µM

TGI in this record for CC1(O)C=CC2CCC1C2O (stereo not drawn) : > 100 µM

TGI in this record for CCCCc1c2c(nc3c1CCc1cc4c(nc1-3)-c1nc3c(c(CCCC)c1CC4)CCC/C3=C\c1ccccc1)/C(=C/c1ccccc1)CCC2 : > 100 µM

TGI in this record for O=C(O)c1c(O)c2cc(Br)ccc2oc1=O : > 100 µM

TGI in this record for CS(=O)(=O)OCCN1CCC2(CC1)SSC1(CCN(CCOS(C)(=O)=O)CC1)S2 : > 100 µM

Further cases:
TGI in this record for C[Si](C)(C)/C=C/CCC(C=O)(CCCl)c1ccccc1 (stereo not drawn) : 55.5 µM

TGI in this record for CC(=O)NC1C(CO)O[C@@H]2OC(C)(C)O[C@H]12 (stereo partly drawn) : > 100 µM

TGI in this record for Nc1ccc2c(c1)C(=O)c1ccccc1-2 : > 100 µM

TGI in this record for N#Cc1cccc(NC(=O)c2ccc(C(=O)O)c(C(=O)c3ccc(C(=O)O)c(C(=O)Nc4cccc(C#N)c4)c3)c2)c1 : > 100 µM

TGI in this record for C=CN1C(=O)OC(c2ccccc2)C1c1ccccc1 (stereo not drawn) : > 100 µM

TGI in this record for COc1cc([C@@H]2c3cc4c(cc3[C@@H](NC(=O)c3ccc(N)cc3)C3COC(=O)[C@@H]32)OCO4)cc(OC)c1O (stereo partly drawn) : 10.9 µM

TGI in this record for CC(CCC(=O)O)[C@H]1CCC2[C@H]3C(CC[C@@]21C)[C@@]1(C)CCC(O)C[C@H]1C[C@@H]3O (stereo partly drawn) : > 100 µM

TGI in this record for CCSc1oc(-c2ccccc2)nc1[P+](c1ccccc1)(c1ccccc1)c1ccccc1 : 1.44 µM

These entries and their values trace back to PubChem BioAssay (NCI).
